Where these numbers come from: patent US12509424B2

biological target: TEL-PDGFRβ fusion gene transfected cells (Ba/F3); assay: Suppression of proliferation of TEL-PDGFRβ fusion gene transfected Ba/F3 cells; details: TEL-PDGFRβ expressing Ba/F3 cells, 72 hours, final concentration 0.1 to 10,000 nM; read-out: PDGFR β/BaF3 proliferation inhibition (IC50)
pIC50: −log10 of the molar value.
reportedEndpoint: pIC50

itemSmiles | observedMeasurement
Cc1ccc(C(=O)N[C@H]2CCCC[C@@H]2O)cc1NCc1cncc(-c2ncc(F)cn2)c1 | 7.72
Cc1ccc(C(=O)N[C@H]2CCCC[C@@H]2O)cc1N[C@@H](C)c1cncc(-c2cccnc2)c1 | 7.72
O=C(Nc1cc(C(=O)N[C@H]2CCCC[C@@H]2O)ccc1Cl)c1cncc(OCC2CC2)c1 | 7.68
CC(C)=Cc1cncc(C(=O)Nc2cc(C(=O)N[C@H]3CCCC[C@@H]3O)ccc2C)c1 | 8.31

###

Measured pIC50 (PDGFR-β (Homo sapiens (Human)))
pIC50: −log10 of the molar value.
reportedEndpoint: pIC50

molecule | observedMeasurement
Cc1ccc(C(=O)N[C@H]2CCCC[C@@H]2O)cc1NC(=O)c1cnc(CC2CC2)s1 [Example 3] | 7.09
Cc1ccc(C(=O)N[C@H]2CCCC[C@@H]2O)cc1CCc1cncc(-c2ccccc2)c1 [Example 174] | 7.57
COc1ccc(-c2cncc(NCc3cccc(NC(=O)N[C@@H]4CCCC[C@@H]4O)c3)n2)cc1OC [Example 158] | 7.59
Cc1ccc(C(=O)N[C@H]2CCCC[C@@H]2O)cc1C#Cc1cncc(Br)n1 [Example 74] | 6.74
Cc1ccc(C(=O)N[C@H]2CCCC[C@@H]2O)cc1NC(=O)c1cncc(OC2CC(F)(F)C2)c1 [Example 47] | 6.41
Cc1ccc(C(=O)N[C@H]2CCCC[C@@H]2O)cc1NC(=O)c1cncc(/C=C/C2CC2)c1 [Example 15] | 7.96
Cc1c(F)cc(C(=O)N[C@H]2CCCC[C@@H]2O)cc1NCc1cncc(-c2ncccn2)c1 [Example 106] | 7.17
Cc1ccc(C(=O)N[C@H]2CCCC[C@@H]2O)cc1NC(=O)c1cnc(NC(C)C)s1 [Example 27] | 8.08

###

molecular target: TEL-PDGFRβ fusion gene transfected cells (Ba/F3); test: Suppression of proliferation of TEL-PDGFRβ fusion gene transfected Ba/F3 cells; details: TEL-PDGFRβ expressing Ba/F3 cells, 72 hours, final concentration 0.1 to 10,000 nM; read-out: PDGFR β/BaF3 proliferation inhibition (IC50)
pIC50: −log10 of the molar value.
Reported values of pIC50 for individual entries

compound | pIC50
Cc1ccc(C(=O)N[C@H]2CCCC[C@@H]2O)cc1CNc1cncc(-c2cccnc2)c1 | 7.66
Cc1c(F)cc(C(=O)N[C@H]2CCCC[C@@H]2O)cc1Nc1cccc(-c2cccnc2)n1 | 6.85
Cc1ccc(C(=O)N[C@H]2CCCC[C@@H]2O)cc1C(C)Nc1cncc(-c2ccccc2)n1 (some centres unmarked) | 6.74
Cc1ccc(C(=O)N[C@H]2CCCC[C@@H]2O)cc1NC(=O)c1cncc(OC(C)C)c1 | 7.37
O=C(Nc1cc(CNc2cncc(-c3ncccn3)c2)ccc1F)N[C@@H]1CCCC[C@@H]1O | 8.23
Cc1ccc(CNc2cncc(-c3ncccn3)c2)cc1NC(=O)N[C@@H]1CCCC[C@@H]1O | 6.70
Cc1ccc(C(=O)N[C@H]2CCCC[C@@H]2O)cc1NC(=O)c1cnc(NC(C)C)s1 | 8.06
Cc1ccc(C(=O)N[C@H]2CCCC[C@@H]2O)cc1NC(=O)c1cncc(-c2cccc(Cl)c2)c1 | 7.89

###

List of IC50 values.
target: TEL-KIT fusion gene transfected cells (Ba/F3); experiment: Suppression of proliferation of TEL-KIT fusion gene transfected Ba/F3 cells; details: read-out: KIT/BaF3 proliferation inhibition (IC50); TEL-KIT expressing Ba/F3 cells, 72 hours, final concentration 0.1 to 10,000 nM
Sequence (P10721 26-976 limits assumed, change not shown): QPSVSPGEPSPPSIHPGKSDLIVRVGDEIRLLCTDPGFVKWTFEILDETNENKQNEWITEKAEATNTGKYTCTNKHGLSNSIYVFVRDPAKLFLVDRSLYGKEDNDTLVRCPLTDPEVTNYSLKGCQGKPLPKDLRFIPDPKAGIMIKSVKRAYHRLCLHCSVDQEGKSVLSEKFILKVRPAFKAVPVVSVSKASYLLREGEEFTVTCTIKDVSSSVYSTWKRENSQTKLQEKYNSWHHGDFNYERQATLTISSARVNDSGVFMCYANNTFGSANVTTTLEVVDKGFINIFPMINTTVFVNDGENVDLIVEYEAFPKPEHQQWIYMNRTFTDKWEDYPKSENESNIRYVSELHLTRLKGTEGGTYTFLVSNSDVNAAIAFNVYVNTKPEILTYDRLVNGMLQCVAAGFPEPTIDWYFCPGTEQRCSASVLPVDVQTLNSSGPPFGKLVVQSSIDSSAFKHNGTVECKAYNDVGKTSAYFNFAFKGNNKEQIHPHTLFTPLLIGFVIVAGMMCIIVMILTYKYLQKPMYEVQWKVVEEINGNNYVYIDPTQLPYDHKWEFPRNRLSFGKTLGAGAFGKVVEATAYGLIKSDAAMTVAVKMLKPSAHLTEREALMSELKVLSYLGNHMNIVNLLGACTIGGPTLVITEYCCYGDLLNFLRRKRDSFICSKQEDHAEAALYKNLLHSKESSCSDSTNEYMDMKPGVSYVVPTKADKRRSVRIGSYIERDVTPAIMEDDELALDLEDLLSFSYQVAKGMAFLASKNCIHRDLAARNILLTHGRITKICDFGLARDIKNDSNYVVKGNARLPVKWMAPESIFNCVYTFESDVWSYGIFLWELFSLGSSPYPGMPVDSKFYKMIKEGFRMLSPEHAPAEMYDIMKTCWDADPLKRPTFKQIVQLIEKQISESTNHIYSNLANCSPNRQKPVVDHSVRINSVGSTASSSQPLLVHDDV
reportedEndpoint: IC50 (nM)

compound | reportedEndpoint | readoutUnit | observedMeasurement
Cc1ccc(C(=O)N[C@H]2CCCC[C@@H]2O)cc1NC(=O)c1cncc(-c2ccc(Cl)cc2)c1 [Example 9] | IC50 | nM | 530
Cc1ccc(C(=O)N[C@H]2CCCC[C@@H]2O)cc1OC(C)c1cncc(-c2ncccn2)c1 (some centres unmarked) [Example 171] | IC50 | nM | 2400
Cc1ccc(C(=O)N[C@H]2CCCC[C@@H]2O)cc1NC(=O)c1cncc(/C=C/C2CC2)c1 [Example 15] | IC50 | nM | 330
Cc1ccc(C(=O)N[C@H]2CCCC[C@@H]2O)cc1C(C)Nc1cncc(-c2ccccc2)n1 (some centres unmarked) [Example 164] | IC50 | nM | 1400
Cc1cncc(C#Cc2cc(C(=O)N[C@H]3CCCC[C@@H]3O)ccc2C)c1 [Example 59] | IC50 | nM | 500
Cc1ccc(C(=O)N[C@H]2CCCC[C@@H]2O)cc1NC(=O)c1cncc(-c2ccccc2C)c1 [Example 12] | IC50 | nM | 800
Cc1ccc(C(=O)N[C@H]2CCCC[C@@H]2O)cc1C#Cc1cncc(-c2ccc(F)cc2)n1 [Example 71] | IC50 | nM | 570
Cc1ccc(C(=O)N[C@H]2CCCC[C@@H]2O)cc1NC(=O)c1cncc(OCC2CC2)c1 [Example 24] | IC50 | nM | 1200

###

target: TEL-PDGFRβ fusion gene transfected cells (Ba/F3); test: Suppression of proliferation of TEL-PDGFRβ fusion gene transfected Ba/F3 cells; details: TEL-PDGFRβ expressing Ba/F3 cells, 72 hours, final concentration 0.1 to 10,000 nM; read-out: PDGFR β/BaF3 proliferation inhibition (IC50)
Each entry below lists one item and its recorded log10 IC50 value.
reportedEndpoint: log10 IC50 (log10 of the value in µM)

itemSmiles | log10 IC50
Cc1ccc(C(=O)N[C@H]2CCCC[C@@H]2O)cc1NC(=O)c1cncc(-c2c(F)cccc2F)c1 | -2.29
Cc1ccc(C(=O)N[C@H]2CCCC[C@@H]2O)cc1CNc1cncc(-c2ccccn2)c1 | -2.62
Cc1ccc(C(=O)N[C@H]2CCCC[C@@H]2O)cc1NCc1cncc(-c2ccccc2)n1 | -1.25
Cc1ccc(C(=O)N[C@H]2CCCC[C@@H]2O)cc1COc1cncc(-c2cccnc2)c1 | -1.74
Cc1ccc(C(=O)N[C@H]2CCCC[C@@H]2O)cc1COc1cncc(-c2ncccn2)c1 | -2.40
Cc1ccc(C(=O)N[C@H]2CCCC[C@@H]2O)cc1NCc1cncc(Br)c1 | -1.59
Cc1ccc(C(=O)N[C@H]2CCCC[C@@H]2O)cc1NC(=O)c1cncc(-c2ccccc2OC(F)(F)F)c1 | -1.77
Cc1ccc(C(=O)N[C@H]2CCCC[C@@H]2O)cc1NC(=O)c1cnc(NC2CC2)s1 | -1.77

###

Listed compounds paired with reported pIC50
target: TEL-KIT fusion gene transfected cells (Ba/F3); experiment: Suppression of proliferation of TEL-KIT fusion gene transfected Ba/F3 cells; settings: read-out: KIT/BaF3 proliferation inhibition (IC50); TEL-KIT expressing Ba/F3 cells, 72 hours, final concentration 0.1 to 10,000 nM;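 also: viable cells quantified via formazan from tetrazolium reduction, inhibition scaled with 0.1% DMSO control as 0% and medium-only blank as 100%, IC50 from two-parameter logistic fit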
pIC50: −log10 of the molar value.

itemSmiles | pIC50
Cc1ccc(C(=O)N[C@H]2CCCC[C@@H]2O)cc1NCc1cncc(-c2ccccc2)n1 | 5.05
O=C(Nc1cc(C(=O)N[C@H]2CCCC[C@@H]2O)ccc1Cl)c1cncc(OCC2CC2)c1 | 6.03
Cc1ccc(C(=O)N[C@H]2CCCC[C@@H]2O)cc1NC(=O)c1cnc(NC(C)(C)C)s1 | 5.92
Cc1ccc(C(=O)N[C@H]2CCCC[C@@H]2O)cc1NCc1cnc2ccsc2c1 | 6.52
Cc1ccc(C(=O)N[C@@H](CO)[C@@H](O)c2ccccc2)cc1CNc1cncc(-c2ccccc2)c1 | 5.15
Cc1ccc(C(=O)N[C@H]2CCCC[C@@H]2O)cc1OCc1cncc(-c2cccnc2)c1 | 5.54
Cc1ccc(C(=O)N[C@H]2CCCC[C@@H]2O)cc1Nc1ccnc(-c2cncc3ccccc23)n1 | 5.70
Cc1ccc(C(=O)N[C@H]2CCCC[C@@H]2O)cc1COc1cncc(-c2ncccn2)c1 | 6.40

###

molecular target: TEL-PDGFRβ fusion gene transfected cells (Ba/F3); test: Suppression of proliferation of TEL-PDGFRβ fusion gene transfected Ba/F3 cells; conditions: TEL-PDGFRβ expressing Ba/F3 cells, 72 hours, final concentration 0.1 to 10,000 nM; read-out: PDGFR β/BaF3 proliferation inhibition (IC50)
Form field: IC50 (one value per entry).

compound | studySystem | IC50
Cc1ccc(C(=O)N[C@@H](CO)[C@@H](O)c2ccccc2)cc1CNc1cncc(Br)c1 [Example 152] | TEL-PDGFRβ fusion gene transfected cells (Ba/F3) | 100 nM
Cc1ccc(C(=O)N[C@H]2CCCC[C@@H]2O)cc1NC(=O)c1cnc(NC2(C)CC2)s1 [Example 39] | TEL-PDGFRβ fusion gene transfected cells (Ba/F3) | 13 nM
Cc1ccc(C(=O)N[C@H]2CCCC[C@@H]2O)cc1NC(=O)c1cncc(-c2cccc(F)c2)c1 [Example 20] | TEL-PDGFRβ fusion gene transfected cells (Ba/F3) | 24 nM
Cc1ccc(C(=O)N[C@H]2CCCC[C@@H]2O)cc1NC(=O)c1cncc(-c2ccc(F)cc2F)c1 [Example 31] | TEL-PDGFRβ fusion gene transfected cells (Ba/F3) | 8 nM
Cc1ccc(C(=O)N[C@H]2CCCC[C@@H]2O)cc1NC(=O)c1cncc(NC2CC2)c1 [Example 4] | TEL-PDGFRβ fusion gene transfected cells (Ba/F3) | 26 nM
O=C(N[C@H]1CCCC[C@@H]1O)c1ccc(Cl)c(C#Cc2cncc(-c3ncccn3)c2)c1 [Example 64] | TEL-PDGFRβ fusion gene transfected cells (Ba/F3) | 5.9 nM
Cc1ccc(C(=O)N[C@H]2CCCC[C@@H]2O)cc1NCc1cncc(-c2ncccn2)c1 [Example 95] | TEL-PDGFRβ fusion gene transfected cells (Ba/F3) | 5.7 nM
Cc1ccc(C(=O)N[C@H]2CCCC[C@@H]2O)cc1OCc1cncc(-c2cccnc2)c1 [Example 165] | TEL-PDGFRβ fusion gene transfected cells (Ba/F3) | 9 nM
Cc1ccc(C(=O)N[C@H]2CCCC[C@@H]2O)cc1NC(=O)c1cncc(N(C)C2CC2)c1 [Example 17] | TEL-PDGFRβ fusion gene transfected cells (Ba/F3) | 10 nM
Cc1ccc(C(=O)N[C@H]2CCCC[C@@H]2O)cc1NCc1cnc2ccccc2c1 [Example 96] | TEL-PDGFRβ fusion gene transfected cells (Ba/F3) | 12 nM
COc1ccc(-c2cncc(C(=O)Nc3cc(C(=O)N[C@H]4CCCC[C@@H]4O)ccc3C)c2)cc1 [Example 18] | TEL-PDGFRβ fusion gene transfected cells (Ba/F3) | 20 nM
Cc1ccc(C(=O)N[C@@H](CO)[C@@H](O)c2ccccc2)cc1CNc1cncc(-c2ccccn2)c1 [Example 155] | TEL-PDGFRβ fusion gene transfected cells (Ba/F3) | 69 nM
Cc1ccc(C(=O)N[C@H]2CCCC[C@@H]2O)cc1NC(=O)c1cncc(-c2ccc(C(F)(F)F)cc2F)c1 [Example 36] | TEL-PDGFRβ fusion gene transfected cells (Ba/F3) | 25 nM
Cc1ccc(C(=O)N[C@H]2CCCC[C@@H]2O)cc1CNc1cncc(-c2ncccn2)c1 [Example 147] | TEL-PDGFRβ fusion gene transfected cells (Ba/F3) | 5.6 nM
Cc1ccc(C(=O)N[C@H]2CCCC[C@@H]2O)cc1NC(=O)c1cncc(-c2ccc(Cl)cc2)c1 [Example 9] | TEL-PDGFRβ fusion gene transfected cells (Ba/F3) | 22 nM
Cc1ccc(C(=O)N[C@H]2CCCC[C@@H]2O)cc1C#Cc1cncc(-c2ccc(F)cc2)n1 [Example 71] | TEL-PDGFRβ fusion gene transfected cells (Ba/F3) | 6 nM
Cc1ccc(C(=O)N[C@H]2CCCC[C@@H]2O)cc1NC(=O)c1cnc(NCC2CC2)s1 [Example 8] | TEL-PDGFRβ fusion gene transfected cells (Ba/F3) | 9.7 nM
Cc1ccc(C(=O)N[C@H]2CCCC[C@@H]2O)cc1NCc1cncc(C#CC2(O)CC2)c1 [Example 97] | TEL-PDGFRβ fusion gene transfected cells (Ba/F3) | 20 nM
C[C@H](Nc1cc(C(=O)N[C@H]2CCCC[C@@H]2O)ccc1Cl)c1cncc(-c2cccnc2)c1 [Example 90] | TEL-PDGFRβ fusion gene transfected cells (Ba/F3) | 35 nM
CCC[C@@H](CO)NC(=O)c1ccc(C)c(NC(=O)c2cncc(-c3ccccc3)c2)c1 [Example 14] | TEL-PDGFRβ fusion gene transfected cells (Ba/F3) | 11 nM
Cc1ccc(C(=O)N[C@H]2CCCC[C@@H]2O)cc1NCc1cncc(C#CC2CC2)c1 [Example 94] | TEL-PDGFRβ fusion gene transfected cells (Ba/F3) | 10 nM
Cc1ccc(C(=O)N[C@H]2CCCC[C@@H]2O)cc1OC(C)c1cncc(-c2ncccn2)c1 (stereo partly shown) [Example 171] | TEL-PDGFRβ fusion gene transfected cells (Ba/F3) | 12 nM
Cc1ccc(C(=O)N[C@H]2CCCC[C@@H]2O)cc1C#Cc1cncc(-c2ncccn2)c1 [Example 62] | TEL-PDGFRβ fusion gene transfected cells (Ba/F3) | 1.7 nM
Cc1ccc(C(=O)N[C@H]2CCCC[C@@H]2O)cc1N[C@@H](C)c1cncc(C#Cc2ccccc2)c1 [Example 86] | TEL-PDGFRβ fusion gene transfected cells (Ba/F3) | 42 nM
Cc1ccc(C(=O)N[C@H]2CCCC[C@@H]2O)cc1C(=O)Nc1cncc(-c2ccccc2)c1 [Example 77] | TEL-PDGFRβ fusion gene transfected cells (Ba/F3) | 79 nM
COc1ccc(-c2cncc(C(=O)Nc3cc(C(=O)N[C@H]4CCCC[C@@H]4O)ccc3C)c2)c(F)c1 [Example 33] | TEL-PDGFRβ fusion gene transfected cells (Ba/F3) | 80 nM
Cc1ccc(C(=O)N[C@H]2CCCC[C@@H]2O)cc1NCc1cnn(-c2ccccn2)c1 [Example 112] | TEL-PDGFRβ fusion gene transfected cells (Ba/F3) | 1.3 nM
Cc1ccc(C(=O)N[C@H]2CCCC[C@@H]2O)cc1N[C@@H](C)c1cncc(-c2ccncc2)c1 [Example 87] | TEL-PDGFRβ fusion gene transfected cells (Ba/F3) | 27 nM
O=C(Nc1cccc(CNc2cncc(-c3ncccn3)c2)c1)N[C@@H]1CCCC[C@@H]1O [Example 159] | TEL-PDGFRβ fusion gene transfected cells (Ba/F3) | 1.7 nM
Cc1ccc(C(=O)N[C@H]2CCCC[C@@H]2O)cc1Nc1ccnc(-c2cccnc2)n1 [Example 78] | TEL-PDGFRβ fusion gene transfected cells (Ba/F3) | 27 nM
Cc1ccc(C(=O)N[C@H]2CCCC[C@@H]2O)cc1C#Cc1cncc(-c2ccccc2F)n1 [Example 69] | TEL-PDGFRβ fusion gene transfected cells (Ba/F3) | 5.8 nM
